Listing: Activity, No BP, DF-100000 of selected binders
Biological target: T1, IL-18 receptors on HEK-Blue IL-18 reporter cells (UniProt Q13478 19-541; O95256 20-599, limits assumed)
T1 sequence (looked up) 1: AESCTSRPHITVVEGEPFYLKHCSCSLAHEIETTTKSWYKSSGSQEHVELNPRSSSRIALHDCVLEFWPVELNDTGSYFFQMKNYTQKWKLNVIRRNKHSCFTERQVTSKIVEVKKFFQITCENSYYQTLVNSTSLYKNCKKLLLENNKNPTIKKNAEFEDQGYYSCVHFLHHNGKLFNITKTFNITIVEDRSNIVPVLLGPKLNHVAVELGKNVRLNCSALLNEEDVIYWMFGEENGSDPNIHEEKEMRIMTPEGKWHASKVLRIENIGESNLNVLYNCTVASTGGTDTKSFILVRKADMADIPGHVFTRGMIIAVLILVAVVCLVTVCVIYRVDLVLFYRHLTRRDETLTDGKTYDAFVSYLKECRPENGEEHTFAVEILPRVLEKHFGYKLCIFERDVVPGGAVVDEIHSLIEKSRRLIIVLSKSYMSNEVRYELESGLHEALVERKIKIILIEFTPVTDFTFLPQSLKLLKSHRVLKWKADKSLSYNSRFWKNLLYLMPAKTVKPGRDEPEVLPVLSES
T1 sequence (looked up) 2: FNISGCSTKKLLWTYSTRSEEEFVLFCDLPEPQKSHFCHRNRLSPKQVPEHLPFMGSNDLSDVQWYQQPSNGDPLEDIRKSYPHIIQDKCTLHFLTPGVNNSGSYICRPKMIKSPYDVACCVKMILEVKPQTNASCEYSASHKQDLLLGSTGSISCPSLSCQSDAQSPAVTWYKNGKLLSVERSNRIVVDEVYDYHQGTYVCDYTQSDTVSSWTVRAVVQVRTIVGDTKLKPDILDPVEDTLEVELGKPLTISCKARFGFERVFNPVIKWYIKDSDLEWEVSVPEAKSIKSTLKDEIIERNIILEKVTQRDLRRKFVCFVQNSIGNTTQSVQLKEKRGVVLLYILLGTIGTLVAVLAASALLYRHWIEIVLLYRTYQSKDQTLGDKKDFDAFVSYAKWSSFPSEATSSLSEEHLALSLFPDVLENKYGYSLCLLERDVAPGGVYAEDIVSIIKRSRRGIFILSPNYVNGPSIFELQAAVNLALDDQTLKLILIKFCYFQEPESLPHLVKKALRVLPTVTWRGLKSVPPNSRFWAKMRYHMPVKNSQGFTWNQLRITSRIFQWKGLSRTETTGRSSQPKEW
Experiment: cell-based or functional assay
measure-name: Activity, No BP, DF-100000

1) IL-18 variant G3P, E6K, K53T, D54Y, S55V, T63I, N91I (ligand) YFPKLKSKLSVIRNLNDQVLFIDQGNRPLFEDMTDSDMRDNAPRTIFIISMYTYVQPRGMAVIISVKSEKISTLSSENKIISFKEMNPPDIIKDTKSDIIFFQRSVPGHDNKMQFESSSYEGYFLASEKERDLFKLILKKEDELGDRSIMFTVQNED
0.26
2) IL-18 variant G3L, E6Q, T63S, N91L, R104T (ligand) YFLKLQSKLSVIRNLNDQVLFIDQGNRPLFEDMTDSDMRDNAPRTIFIISMYKDSQPRGMAVSISVKSEKISTLSSENKIISFKEMNPPDLIKDTKSDIIFFQTSVPGHDNKMQFESSSYEGYFLASEKERDLFKLILKKEDELGDRSIMFTVQNED
2.12
